- Experiment Notes: Cell viability / cytotoxicity, MTT assay
- Measurement Parameters: mouse

# Compound, U, IC50
records = [
    ("C[C@@H]1O[C@@H](Oc2c(-c3ccc(O)c(O)c3)oc3cc(O)cc(O)c3c2=O)[C@H](O)[C@H](O)[C@H]1O [FC, quercetin-3-O-rhamnoside]", "µg/mL", 6.4),
]

* * *

- System Under Test: porcine pancreatic elastase (Sus scrofa)
- Sequence (P00772 27-266): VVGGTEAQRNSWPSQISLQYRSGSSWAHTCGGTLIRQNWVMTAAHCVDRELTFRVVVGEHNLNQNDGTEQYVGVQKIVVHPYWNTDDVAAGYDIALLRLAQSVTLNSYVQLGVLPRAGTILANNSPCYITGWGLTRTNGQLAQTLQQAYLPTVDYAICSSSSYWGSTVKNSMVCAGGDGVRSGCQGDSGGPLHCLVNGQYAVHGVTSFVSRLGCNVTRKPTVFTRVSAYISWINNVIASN
- Experiment Notes: Elastase inhibition assay (N-succinyl-Ala-Ala-Ala-p-nitroanilide substrate)
- Format: biochemical
pIC50: −log10 of the molar value.

# Compound, System Under Test, pIC50
records = [
    ("C[C@@H]1O[C@@H](Oc2c(-c3ccc(O)c(O)c3)oc3cc(O)cc(O)c3c2=O)[C@H](O)[C@H](O)[C@H]1O [FC, quercetin-3-O-rhamnoside]", "porcine pancreatic elastase (Sus scrofa)", 3.72),
]
